- assay explanation: Tissue distribution (PK) in BALB/c nude mice bearing human colon cancer LoVo xenografts
- Assay type: in vivo
- test settings: mouse, liver, LoVo xenograft mice, oral 40 mg/kg twice a day for three weeks, after last administration
- Protocol: (1) In vivo PD study of the compound used on tumors of human colon cancer LoVo cells subcutaneously xenografted to BALB/c nude mice model […] Human colon cancer LoVo cells, monolayer-cultured in vitro, culturing condition was Ham's F-12 medium supplemented with 10% fetal bovine serum, 100 U/mL penicillin, 100 μg/mL streptomycin and 2 mM glutamine, 37° C., 5% CO2. […] When the cell saturation reached 80%-90%, the cells were collected, counted, and inoculated. […]
Measured AUC(0-t) values are reported for all entries that follow.
Your answer should be a plain number; it is taken to be in µM·h.

QUERY: What value of measured AUC(0-t) is listed for C=CCn1c(=O)c2cnc(Nc3ccc(N4CCC5(CCN(C(C)=O)CC5)CC4)cc3)nc2n1-c1cccc(C(C)(C)O)n1 ?
RESULT: 257

QUERY: Need AUC(0-t), item C=CCn1c(=O)c2cnc(Nc3ccc(N4CCN(C)CC4)cc3)nc2n1-c1cccc(C(C)(C)O)n1 [AZD1775, reference compound]
RESULT: 117

====

- target: Wee1 (Homo sapiens (Human), UniProt P30291)
- Sequence (P30291 whole entry): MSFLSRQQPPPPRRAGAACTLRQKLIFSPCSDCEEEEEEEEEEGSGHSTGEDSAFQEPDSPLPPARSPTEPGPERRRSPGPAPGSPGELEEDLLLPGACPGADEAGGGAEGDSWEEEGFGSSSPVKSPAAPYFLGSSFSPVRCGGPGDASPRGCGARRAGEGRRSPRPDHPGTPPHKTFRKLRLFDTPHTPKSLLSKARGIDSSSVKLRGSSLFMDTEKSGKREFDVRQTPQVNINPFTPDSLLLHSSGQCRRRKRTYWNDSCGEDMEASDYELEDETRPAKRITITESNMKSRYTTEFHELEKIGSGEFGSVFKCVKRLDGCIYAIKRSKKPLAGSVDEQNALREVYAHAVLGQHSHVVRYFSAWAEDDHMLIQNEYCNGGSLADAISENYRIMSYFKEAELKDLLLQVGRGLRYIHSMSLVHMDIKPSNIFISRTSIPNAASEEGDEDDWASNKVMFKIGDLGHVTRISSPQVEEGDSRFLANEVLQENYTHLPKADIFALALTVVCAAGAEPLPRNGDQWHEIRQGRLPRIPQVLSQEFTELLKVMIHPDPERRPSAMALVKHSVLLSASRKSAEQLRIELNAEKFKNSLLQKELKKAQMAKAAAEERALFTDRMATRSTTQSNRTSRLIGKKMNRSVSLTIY
- assay explanation: In vitro enzymatic inhibitory activity (33P-ATP filter-binding kinase assay, MBP substrate)
- Type: biochemical
- test settings: Wee-1 150 nM, MBP 20 μM
measurement label: log10 of IC50 (log10 of the value in nM)
A value of 2 here means IC50 of 100 in nM, since values are log10.

Some compounds with recorded log10 of IC50:
C=CCn1c(=O)c2cnc(Nc3ccc(N4CCC5(CC4)CCN(C4COC4)CC5)cc3)nc2n1-c1cccc(C(C)(C)O)n1; 0.76
C=CCn1c(=O)c2cnc(Nc3ccc(N4CCC5(CCN(C)CC5)CC4)cc3)nc2n1-c1cccc([C@@](C)(O)C(F)(F)F)n1; 1.11
C=CCn1c(=O)c2cnc(Nc3ccc(N4CCC5(CCN(C)CC5)CC4)cc3)nc2n1-c1cccc(C(C)(F)F)n1; 0.49
C=CCn1c(=O)c2cnc(Nc3ccc(N4CCC5(CCN(C)CC5)CC4)cc3)nc2n1-c1cccc(C(F)(F)F)n1; 1.65
C=CCn1c(=O)c2cnc(Nc3ccc(N4CCC5(CCN(CCOC)CC5)CC4)cc3)nc2n1-c1cccc(C(C)(C)O)n1; 1.00
C=CCn1c(=O)c2cnc(Nc3ccc(N4CCC5(CCN(C)CC5)CC4)cc3)nc2n1-c1cccc(OC2CCC2)n1; 1.76

QUERY: Requested field: log10 of IC50. Item: C=CCn1c(=O)c2cnc(Nc3ccc(N4CCC5(CCN(C)CC5)CC4)cc3)nc2n1-c1cccc(OC)n1
RESULT: 0.48

QUERY: I would be grateful if you could share the reported log10 of IC50 for C=CCn1c(=O)c2cnc(Nc3ccc(N4CCC5(CCN(C)CC5)CC4)cc3)nc2n1-c1cccc(Cl)c1 .
RESULT: 1.68

QUERY: Any idea what log10 of IC50 was measured for C=CCn1c(=O)c2cnc(Nc3ccc(N4CCC5(CCN(C)CC5)CC4)cc3)nc2n1-c1cccc(C2(O)CC(F)(F)C2)n1 ?
RESULT: 1.18

QUERY: Using the record for C=CCn1c(=O)c2cnc(Nc3ccc(N4CCC5(CCN(C)CC5)CC4)cc3C)nc2n1-c1cccc(C(C)(C)O)n1 , report its log10 of IC50.
RESULT: 2.38

QUERY: Find the recorded log10 of IC50 belonging to C=CCn1c(=O)c2cnc(Nc3ccc(N4CCC5(CCN(C)CC5)CC4)cc3)nc2n1-c1cccc(F)n1 and report it.
RESULT: 1.40

QUERY: Could you tell me which log10 of IC50 is on file for C=CCn1c(=O)c2cnc(Nc3ccc(N4CCC5(CCN(C)CC5)CC4)c(F)c3)nc2n1-c1cccc(C(C)(C)O)n1 ?
RESULT: 2.08

====

- assay explanation: Tissue distribution (PK) in BALB/c nude mice bearing human colon cancer LoVo xenografts
- Format: in vivo
- test settings: mouse, pancreas, LoVo xenograft mice, oral 40 mg/kg twice a day for three weeks, after last administration
measurement label: Cmax (µM)
Write the number in µM without appending the unit.

C=CCn1c(=O)c2cnc(Nc3ccc(N4CCN(C)CC4)cc3)nc2n1-c1cccc(C(C)(C)O)n1 [AZD1775, reference compound]; 35.6

As a next step, examine the compound that follows.
QUERY: Field request: Cmax | item: C=CCn1c(=O)c2cnc(Nc3ccc(N4CCC5(CCN(C(C)=O)CC5)CC4)cc3)nc2n1-c1cccc(C(C)(C)O)n1
RESULT: 49.3

====

- assay explanation: Pharmacokinetic evaluation in BALB/c mice after intravenous and oral administration
- Type: in vivo
- test settings: mouse, plasma; BALB/c mice (female), single intravenous injection and oral administration; read-out: bioavailability F
Documented bioavailability across a set of compounds
The figure you give is taken to be in %; do not add the unit.

C=CCn1c(=O)c2cnc(Nc3ccc(N4CCN(C)CC4)cc3)nc2n1-c1cccc(C(C)(C)O)n1 [AZD1775, reference compound]; 31
C=CCn1c(=O)c2cnc(Nc3ccc(N4CCC5(CCN(C)CC5)CC4)cc3)nc2n1-c1cccc(C(=O)N(C)C)n1; 35.3
C=CCn1c(=O)c2cnc(Nc3ccc(N4CCC5(CCN(C)CC5)CC4)cc3)nc2n1-c1cccc(C(C)(C)O)n1; 32.4

Here is the next item to consider.
QUERY: Could you share which bioavailability value was measured for C=CCn1c(=O)c2cnc(Nc3ccc(N4CCC5(CCN(C)CC5)CC4)cc3)nc2n1-c1cccc(C2(F)COC2)n1 ?
RESULT: 45.1

====

- target: Wee1 (Homo sapiens (Human))
- assay explanation: In vitro enzymatic inhibitory activity (33P-ATP filter-binding kinase assay, MBP substrate)
- Format: biochemical
- test settings: Wee-1 150 nM, MBP 20 μM
measurement label: IC50 (nM)
Kindly provide the numeric value in nM only, without the unit symbol.

# annotated cases, reported IC50 shown
C=CCn1c(=O)c2cnc(Nc3ccc(N4CCC5(CCN(C)CC5)CC4)cc3)nc2n1-c1cccc(C(C)(C)O)n1 [Embodiment 29]; 13.4
C=CCn1c(=O)c2cnc(Nc3ccc(N4CCC5(CCN(C)CC5)CC4)cc3)nc2n1-c1cccc(N2CC(F)(F)C2)n1 [Compound 72]; 8.2

Turning now to a further molecule:
QUERY: Requested field: IC50. Item: C=CCn1c(=O)c2cnc(Nc3ccc(N4CCC5(CCN(C)CC5)CC4)cc3)nc2n1-c1cccc(C2CC2)n1 [Embodiment 45]
RESULT: 7.4

====

- target: Wee1 (Homo sapiens (Human), UniProt P30291)
- assay explanation: In vitro enzymatic inhibitory activity (33P-ATP filter-binding kinase assay, MBP substrate)
- Format: biochemical
- test settings: Wee-1 150 nM, MBP 20 μM
measurement label: IC50 (nM)
I only need the number, in nM, no unit after it.

QUERY: Could you share which IC50 value was measured for CCn1c(=O)c2cnc(Nc3ccc(N4CCC5(CCN(C)CC5)CC4)cc3)nc2n1-c1ccccc1 [Embodiment 19] ?
RESULT: 83.2

QUERY: Bench note: what IC50 did C=CCn1c(=O)c2cnc(Nc3ccc(N4CCC5(CCN(C)CC5)CC4)cc3)nc2n1-c1cccc(N2CCN(C)C2=O)n1 [Embodiment 56] show?
RESULT: 74

QUERY: Which IC50 is listed for C=CCn1c(=O)c2cnc(Nc3ccc(N4CCC5(CCNCC5)CC4)cc3)nc2n1-c1cccc(C2(F)COC2)n1 [Compound 77] ?
RESULT: 9

QUERY: Bench note: what IC50 did C=CCn1c(=O)c2cnc(Nc3ccc(N4CCC5(CCN(C)CC5)CC4)cc3)nc2n1-c1cccc(C(=O)N(C)C)n1 [Embodiment 15] show?
RESULT: 31.5

QUERY: Which value of IC50 has been reported for C=C(F)Cn1c(=O)c2cnc(Nc3ccc(N4CCC5(CCN(C)CC5)CC4)cc3)nc2n1-c1cccc(C(C)(C)O)n1 [Compound 79] in the records?
RESULT: 43

====

- target: Wee1 (Homo sapiens (Human), UniProt P30291)
- assay explanation: In vitro enzymatic inhibitory activity (33P-ATP filter-binding kinase assay, MBP substrate)
- Type: biochemical
- test settings: Wee-1 150 nM, MBP 20 μM
# note: boundary value 20 nM maps to Not met; IC50 below it maps to Met

Sample answers from the record:
C=CCn1c(=O)c2cnc(Nc3ccc(N4CCC5(CCN(C)CC5)CC4)cc3)nc2n1-c1cccc(C(=O)NC)n1 [Embodiment 14]; Not met
C=CCn1c(=O)c2cnc(Nc3ccc(N4CCC5(CCNCC5)CC4)cc3)nc2n1-c1cccc(C(C)(C)O)n1 [Compound 76]; Met
C=CCn1c(=O)c2cnc(Nc3ccc(N4CCC5(CCN(C(=O)OC)CC5)CC4)cc3)nc2n1-c1cccc(C(C)(C)O)n1 [Embodiment 31]; Met
C=CCn1c(=O)c2cnc(Nc3ccc(N4CCC5(CCN(C)CC5)CC4)cc3)nc2n1-c1ccsc1 [Embodiment 8]; Not met

QUERY: I wonder whether C=CCn1c(=O)c2cnc(Nc3ccc(N4CCC5(CCN(C)CC5)CC4)cc3)nc2n1-c1cccc(C(C)(O)C(F)F)n1 (stereo not drawn) [Compound 78] has IC50 below 20 nM. Can you tell?
RESULT: Not met

QUERY: Given C=CCn1c(=O)c2cnc(Nc3ccc(N4CCC5(CCN(C)CC5)CC4)cc3)nc2n1-c1cccc(OC2CC2)n1 [Embodiment 50] , is recorded IC50 strictly lower than 20 nM?
RESULT: Met

QUERY: IC50 strictly < 20 nM for this molecule? C=CCn1c(=O)c2cnc(Nc3ccc(N4CCC5(CCN(C)CC5)CC4)cc3)nc2n1-c1ccccn1 [Embodiment 3]
RESULT: Not met

QUERY: Is 20 nM strictly greater than the molecule's reported IC50? molecule: C=CCn1c(=O)c2cnc(Nc3ccc(N4CCC5(CCN(C)CC5)CC4)cc3)nc2n1-c1cccc(C(N)=O)n1 [Embodiment 13]
RESULT: Not met

QUERY: Is it true that IC50 reported for C=CCn1c(=O)c2cnc(Nc3ccc(N4CCC5(CCN(C)CC5)CC4)cc3)nc2n1-c1cccc(OC2COC2)n1 [Embodiment 53] is less than 20 nM?
RESULT: Not met

QUERY: Consider the molecule C=CCn1c(=O)c2cnc(Nc3ccc(N4CCC5(CCN(C)CC5)CC4)c(OC)c3)nc2n1-c1cccc(C(C)(C)O)n1 [Embodiment 38] . Is its IC50 strictly less than 20 nM?
RESULT: Not met

QUERY: State whether 20 nM exceeds IC50 recorded for C=CCn1c(=O)c2cnc(Nc3ccc(N4CCC5(CCN(C)CC5)CC4)cc3)nc2n1-c1cccc(P(C)(C)=O)n1 [Embodiment 59] .
RESULT: Not met
